Molecular target: Ephrin type-A receptor 2 (Homo sapiens) (UniProt P29317);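 further: reported values are mean percent inhibition of EPHA2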
Sequence (P29317 whole entry): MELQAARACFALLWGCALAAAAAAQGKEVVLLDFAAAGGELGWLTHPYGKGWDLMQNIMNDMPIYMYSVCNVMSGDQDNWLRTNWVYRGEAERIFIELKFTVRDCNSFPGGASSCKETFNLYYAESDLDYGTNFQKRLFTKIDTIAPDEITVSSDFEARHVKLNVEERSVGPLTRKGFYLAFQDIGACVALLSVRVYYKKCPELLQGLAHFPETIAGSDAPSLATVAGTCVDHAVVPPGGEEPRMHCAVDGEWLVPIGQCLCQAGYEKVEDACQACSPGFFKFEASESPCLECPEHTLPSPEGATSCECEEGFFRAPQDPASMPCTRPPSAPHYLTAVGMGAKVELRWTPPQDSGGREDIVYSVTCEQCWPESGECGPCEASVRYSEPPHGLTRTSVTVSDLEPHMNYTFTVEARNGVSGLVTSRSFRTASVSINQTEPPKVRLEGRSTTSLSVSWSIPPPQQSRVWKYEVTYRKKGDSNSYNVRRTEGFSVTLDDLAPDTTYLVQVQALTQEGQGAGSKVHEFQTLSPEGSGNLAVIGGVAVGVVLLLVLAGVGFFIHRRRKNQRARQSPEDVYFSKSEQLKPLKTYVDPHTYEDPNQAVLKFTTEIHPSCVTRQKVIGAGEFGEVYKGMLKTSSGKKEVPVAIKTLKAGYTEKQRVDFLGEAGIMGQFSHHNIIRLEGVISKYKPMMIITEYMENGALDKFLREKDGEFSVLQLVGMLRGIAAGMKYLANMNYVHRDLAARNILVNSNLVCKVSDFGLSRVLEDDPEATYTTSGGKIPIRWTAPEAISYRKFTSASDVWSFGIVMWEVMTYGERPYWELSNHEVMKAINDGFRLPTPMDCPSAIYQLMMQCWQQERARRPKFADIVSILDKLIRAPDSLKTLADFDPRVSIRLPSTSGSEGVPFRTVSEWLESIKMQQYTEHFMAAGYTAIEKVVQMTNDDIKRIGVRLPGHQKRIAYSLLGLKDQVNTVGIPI
Conditions: at 0.1 µM
Observation type: inhibition

[
  {
    "Compound structure string": "[O-][S+]1CCN(Cc2ccc(-c3ccc4ncnc(Nc5ccc(OCc6cccc(F)c6)c(Cl)c5)c4c3)o2)CC1",
    "Test result": "1.19%"
  }
]

Q: In one line, give reported inhibition of the entry "Fc1ccc(-c2cc(-c3c[nH]nc3-c3ccccn3)ccn2)cc1" .
Result: 1.25%

Q: Annotate the molecule "c1ccc(-c2nc3n(c2-c2ccc4c(c2)OCO4)CCC3)nc1" with its measured inhibition.
Result: -2.56%

Q: Hello, please tell me recorded inhibition for this one: "CC(=O)NCc1cccc(C#Cc2cncnc2Nc2ccc(OCc3cccc(F)c3)c(Cl)c2)c1"
Result: -3.31%

Q: Output measured inhibition for this item: "Cc1ccc(O)cc1Nc1ccnc2cc(-c3ccccn3)ccc12"
Result: 34.4%

Q: Please give measured inhibition of the following entry: "NS(=O)(=O)c1ccc(N/N=C2\C(=O)Nc3ccc4ncccc4c32)cc1"
Result: 1.99%

Q: Supply recorded inhibition for "COc1ccc2c(-c3ccnc(Nc4cccc(OC(F)(F)F)c4)n3)cnn2n1" here.
Result: 1.21%

Q: Give the reported value of inhibition for this record: "CCOc1ccc2c(-c3ccnc(Nc4cccc(C(F)(F)F)c4)n3)cnn2n1"
Result: 1.2%

Q: Assign inhibition to the following record: "CN(C)CCOc1ccc(-c2nc(-c3ccncc3)c(-c3ccc4c(c3)CC/C4=N\O)[nH]2)cc1"
Result: 1.49%

Q: // Input: "COc1ccc(-c2cc(-c3c[nH]nc3-c3ccccn3)ccn2)cc1" . Output its inhibition only.
Result: 2.38%

Q: Fill in inhibition for record "CCn1c(-c2nonc2N)nc2c(C#CC(C)(C)O)nc(OC[C@H](N)c3ccccc3)cc21"
Result: 0.4%

Q: Quickly give me recorded inhibition for "Nc1nc(-c2cccc(Cl)c2)c(-c2ccc3ncccc3n2)s1"
Result: 0.6%

Q: Give a short answer stating reported inhibition for "CCN(CC)S(=O)(=O)c1ccc(OC)c(Nc2ncc(-c3ccccc3)o2)c1" .
Result: 4.36%

Q: Retrieve inhibition measured for "c1cc(-c2cnn3nc(N4CCOCC4)ccc23)nc(NC2CC2)n1" and print it.
Result: 2.12%

Q: Please report inhibition for the following molecule: "CCN1CCC(CC(=O)Nc2n[nH]c3nnc(-c4cccc(F)c4F)cc23)CC1"
Result: 0.75%

Q: Return inhibition (reported value) for this molecule: "CN1CCC(n2cnc(-c3ccc(F)cc3)c2-c2ccnc(N)n2)CC1"
Result: 0.47%

Q: Answer with reported inhibition of "CCn1c(-c2nonc2N)nc2cnc(Oc3cccc(NC(=O)c4ccc(N(C)C)cc4)c3)cc21"
Result: -2.08%
